Quick reference: Dmax of the listed items.
target under test: BRG1 (Homo sapiens)
Construct: either BRM primary antibody (Cell signaling Cat #11966) or BRG primary antibody (Abcam, ab 110641); endogenous in cells; host or cells: SW1573
Sequence (P51532 whole entry): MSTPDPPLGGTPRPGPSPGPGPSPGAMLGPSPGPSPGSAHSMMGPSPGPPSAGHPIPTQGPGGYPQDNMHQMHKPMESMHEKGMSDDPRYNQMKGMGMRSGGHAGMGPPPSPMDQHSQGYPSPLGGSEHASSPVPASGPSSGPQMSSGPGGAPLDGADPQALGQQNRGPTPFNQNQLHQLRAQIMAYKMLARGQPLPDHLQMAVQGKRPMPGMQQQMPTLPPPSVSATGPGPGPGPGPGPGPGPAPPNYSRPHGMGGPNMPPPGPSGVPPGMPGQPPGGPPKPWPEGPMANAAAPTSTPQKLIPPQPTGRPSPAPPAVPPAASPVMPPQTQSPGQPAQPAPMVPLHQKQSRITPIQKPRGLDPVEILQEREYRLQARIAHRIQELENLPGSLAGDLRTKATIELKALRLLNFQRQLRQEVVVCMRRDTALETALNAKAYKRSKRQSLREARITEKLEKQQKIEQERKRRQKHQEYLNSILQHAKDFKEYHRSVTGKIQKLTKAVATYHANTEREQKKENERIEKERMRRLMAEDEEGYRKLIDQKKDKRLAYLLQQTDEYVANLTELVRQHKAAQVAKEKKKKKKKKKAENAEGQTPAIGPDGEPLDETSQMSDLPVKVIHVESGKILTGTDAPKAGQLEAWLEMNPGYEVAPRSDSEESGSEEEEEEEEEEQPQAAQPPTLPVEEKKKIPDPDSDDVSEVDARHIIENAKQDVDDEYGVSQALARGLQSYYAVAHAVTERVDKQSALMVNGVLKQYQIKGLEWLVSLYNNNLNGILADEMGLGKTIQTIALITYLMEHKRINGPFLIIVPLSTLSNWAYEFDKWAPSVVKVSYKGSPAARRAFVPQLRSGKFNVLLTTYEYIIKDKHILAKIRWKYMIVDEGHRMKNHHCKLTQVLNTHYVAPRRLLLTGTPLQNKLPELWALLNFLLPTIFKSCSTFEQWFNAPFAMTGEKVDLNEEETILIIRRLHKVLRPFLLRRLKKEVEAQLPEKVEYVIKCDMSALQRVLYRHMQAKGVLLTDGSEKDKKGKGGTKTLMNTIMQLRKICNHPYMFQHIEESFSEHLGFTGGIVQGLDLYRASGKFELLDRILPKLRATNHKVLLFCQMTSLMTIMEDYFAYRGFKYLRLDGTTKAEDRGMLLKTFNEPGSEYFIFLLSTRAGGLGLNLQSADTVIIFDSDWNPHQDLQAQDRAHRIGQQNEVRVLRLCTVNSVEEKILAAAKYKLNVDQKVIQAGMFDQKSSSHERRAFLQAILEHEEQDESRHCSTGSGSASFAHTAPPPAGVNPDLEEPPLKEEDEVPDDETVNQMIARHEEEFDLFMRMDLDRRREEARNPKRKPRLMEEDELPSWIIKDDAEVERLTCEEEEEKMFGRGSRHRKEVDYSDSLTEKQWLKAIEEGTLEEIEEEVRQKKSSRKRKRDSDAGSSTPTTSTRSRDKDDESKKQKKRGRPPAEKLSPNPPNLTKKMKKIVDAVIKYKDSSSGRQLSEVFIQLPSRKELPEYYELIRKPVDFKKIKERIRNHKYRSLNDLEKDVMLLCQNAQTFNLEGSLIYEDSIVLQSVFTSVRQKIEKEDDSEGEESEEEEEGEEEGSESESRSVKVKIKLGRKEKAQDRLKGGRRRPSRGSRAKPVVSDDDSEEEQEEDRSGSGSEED
method description: Immunofluorescence assay for BRG1 degradation in SW1573 cells
Format: cell-based
particulars: SW1573, 20 h, 20 hours incubation, normalized to a known degrader control, read-out: BRG1 IF Degradation Sinf (%)
endpoint label: Dmax

> print(dat)
                                    compound  assay.result
 1  Nc1nnc(-c2ccccc2O)cc1N1CC2CCC(C1)N2c1ccnc(C#CCN2CCC3CCCC32)c1 (stereo not drawn) [Compound 94]     30 to 70%
 2  Nc1nnc(-c2ccccc2O)cc1N1CC2CCC(C1)N2c1ccnc(C#CCN2CC(O)(C3CC3)C2)c1 [Compound 154]     30 to 70%
 3  Nc1nnc(-c2ccccc2O)cc1N1CC2CCC(C1)N2c1ccnc(C#CCN2CC3CCOC3C2)c1 (stereo not drawn) [Compound 81]     30 to 70%
 4  Nc1nnc(-c2ccccc2O)cc1N1CC2CCC(C1)N2c1ccnc(C#CCN2CCC23CCOCC3)c1 [Compound 159]     30 to 70%
 5  Nc1nnc(-c2ccccc2O)cc1N1CC2CCC(C1)N2c1ccnc(C#CCN2CC3CCCC3C2)c1 (stereo not drawn) [Compound 63]     30 to 70%
 6  Nc1nnc(-c2ccccc2O)cc1N1CC2CCC(C1)N2c1ccnc(C#CC2CCOCC2)c1 [Compound 22]      0 to 30%
 7  Nc1nnc(-c2ccccc2O)cc1N1CC2CCC(C1)N2c1ccnc(C#CCN2CCC3CC2CO3)c1 (stereo not drawn) [Compound 104]      0 to 30%
 8  Nc1nnc(-c2ccccc2O)cc1N1CC2CCC(C1)N2c1ccnc(C#CCN2CC3CC3(CO)C2)c1 (stereo not drawn) [Compound 137]     30 to 70%
 9  Nc1nnc(-c2ccccc2O)cc1N1CC2CCC(C1)N2c1ccnc(C#CCN2CCCCCC2)n1 [Compound 245]     30 to 70%
10  Nc1nnc(-c2ccccc2O)cc1N1CC2CCC(C1)N2c1ccnc(C#CCN2CC3(CCCO3)C2)c1 [Compound 178]     30 to 70%
11  Nc1nnc(-c2ccccc2O)cc1N1CC2CCC(C1)N2c1ccnc(C#CCN2Cc3cccnc3C2)c1 [Compound 56]      0 to 30%
12  Nc1nnc(-c2ccccc2O)cc1N1CC2CCC(C1)N2c1ccnc(C#CCN2CC3CCCC32)c1 (stereo not drawn) [Compound 162]     30 to 70%
13  Nc1nnc(-c2ccccc2O)cc1N1CC2CCC(C1)N2c1ccnc(C#CCN2CC3(C2)C(CF)CCS3(=O)=O)c1 (stereo not drawn) [Compound 177]     30 to 70%
14  Nc1nnc(-c2ccccc2O)cc1N1CC2CCC(C1)N2c1ccnc(C#CCN2CC(C(F)(F)F)C2)c1 [Compound 232]     30 to 70%
15  CC1CCN(CC#Cc2cc(N3C4CCC3CN(c3cc(-c5ccccc5O)nnc3N)C4)ccn2)CC1 [Compound 138]     30 to 70%

* * *

target under test: UniProtKB P51531
Sequence (P51531 whole entry): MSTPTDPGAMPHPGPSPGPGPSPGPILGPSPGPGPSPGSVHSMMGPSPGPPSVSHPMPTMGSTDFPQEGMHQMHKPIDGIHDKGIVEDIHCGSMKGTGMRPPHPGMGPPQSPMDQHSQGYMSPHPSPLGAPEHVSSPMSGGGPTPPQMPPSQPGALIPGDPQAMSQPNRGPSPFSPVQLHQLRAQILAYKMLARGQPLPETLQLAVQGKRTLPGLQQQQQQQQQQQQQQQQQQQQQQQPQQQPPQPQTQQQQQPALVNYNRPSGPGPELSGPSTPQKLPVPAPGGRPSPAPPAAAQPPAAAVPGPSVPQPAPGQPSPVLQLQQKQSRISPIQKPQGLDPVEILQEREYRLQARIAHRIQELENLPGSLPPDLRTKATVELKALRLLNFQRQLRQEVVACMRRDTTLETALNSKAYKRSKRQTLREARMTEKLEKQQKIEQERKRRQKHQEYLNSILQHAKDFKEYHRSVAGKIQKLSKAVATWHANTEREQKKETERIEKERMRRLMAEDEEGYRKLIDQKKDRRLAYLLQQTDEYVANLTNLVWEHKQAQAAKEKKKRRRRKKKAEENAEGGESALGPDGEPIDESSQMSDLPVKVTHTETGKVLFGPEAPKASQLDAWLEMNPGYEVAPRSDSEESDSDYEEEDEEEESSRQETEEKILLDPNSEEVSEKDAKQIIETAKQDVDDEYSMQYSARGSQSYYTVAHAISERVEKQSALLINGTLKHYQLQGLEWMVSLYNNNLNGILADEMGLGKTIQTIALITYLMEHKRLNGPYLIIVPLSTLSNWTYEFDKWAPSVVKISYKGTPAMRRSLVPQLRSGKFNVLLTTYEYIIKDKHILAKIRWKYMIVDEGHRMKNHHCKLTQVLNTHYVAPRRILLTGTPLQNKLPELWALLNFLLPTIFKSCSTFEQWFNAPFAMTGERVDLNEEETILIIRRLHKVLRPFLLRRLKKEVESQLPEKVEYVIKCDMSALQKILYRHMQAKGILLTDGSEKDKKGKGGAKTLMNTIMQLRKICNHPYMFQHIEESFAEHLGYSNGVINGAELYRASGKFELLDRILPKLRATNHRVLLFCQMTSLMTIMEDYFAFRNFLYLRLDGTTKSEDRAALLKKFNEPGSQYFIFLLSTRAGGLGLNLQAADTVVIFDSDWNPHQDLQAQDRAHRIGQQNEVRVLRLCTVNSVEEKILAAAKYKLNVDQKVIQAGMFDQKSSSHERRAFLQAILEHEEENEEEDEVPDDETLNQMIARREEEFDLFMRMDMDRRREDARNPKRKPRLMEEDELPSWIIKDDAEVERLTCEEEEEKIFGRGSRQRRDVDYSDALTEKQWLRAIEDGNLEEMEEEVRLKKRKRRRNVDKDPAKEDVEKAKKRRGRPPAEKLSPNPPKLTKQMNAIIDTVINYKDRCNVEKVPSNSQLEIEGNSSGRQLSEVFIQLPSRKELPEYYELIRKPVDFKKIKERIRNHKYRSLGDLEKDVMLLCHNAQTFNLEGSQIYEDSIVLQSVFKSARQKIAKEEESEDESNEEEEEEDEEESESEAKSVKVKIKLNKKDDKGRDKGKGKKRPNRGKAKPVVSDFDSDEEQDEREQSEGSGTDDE
method description: Immunofluorescence assay for BRM degradation in SW1573 cells
Format: cell-based
Set-up: treated overnight at 4° C. with either BRM primary antibody (Cell signaling Cat #11966) or BRG primary antibody; endogenous in cells; host or cells: SW1573
particulars: 20 hours incubation, immunofluorescence mean nuclear signal, read-out: BRM IF Degradation IC50
Quick reference: DC50 of the listed items.
endpoint label: DC50

> print(dat)
                                    molecule  assay.result
 1  Nc1nnc(-c2ccccc2O)cc1N1CC2CCC(C1)N2c1ccnc(C#CCN2CCC[C@@H]2CO)c1       < 10 nM
 2  Nc1nnc(-c2ccccc2O)cc1N1CC2CCC(C1)N2c1ccnc(C#CCN2CCC3COCC3C2)c1 (stereo not drawn)       < 10 nM
 3  C[C@H]1CCN(CC#Cc2cc(N3C4CCC3CN(c3cc(-c5ccccc5O)nnc3N)C4)ccn2)C1       < 10 nM
 4  Nc1nnc(-c2ccccc2O)cc1N1CC2CCC(C1)N2c1ccnc(C#CCN2C[C@H]3CC[C@@H]2C3)c1       < 10 nM
 5  Nc1nnc(-c2ccccc2O)cc1N1CCC2(CCN(c3ccnc(C#CCN4CCCCCC4)c3)C2)CC1       < 10 nM
 6  Nc1nnc(-c2ccccc2O)cc1N1CC2CCC(C1)N2c1ccnc(C#CCN2CC3(CCCC3)C2)c1       < 10 nM
 7  Nc1nnc(-c2ccccc2O)cc1N1CC2CCC(C1)N2c1ccnc(C#CCN2CCCCCC2)c1       < 10 nM
 8  Nc1nnc(-c2ccccc2O)cc1N1CC2CCC(C1)N2c1ccnc(C#CCN2Cc3cccnc3C2)c1  10 to 100 nM
 9  Nc1nnc(-c2ccccc2O)cc1N1CC2CCC(C1)N2c1ccnc(C#CCN2CC3COCC3C2)c1 (stereo not drawn)       < 10 nM
10  Nc1nnc(-c2ccccc2O)cc1N1CC2(CN(c3ccnc(C#CCN4CCCCCC4)c3)C2)C1       < 10 nM
11  Nc1nnc(-c2ccccc2O)cc1N1CC2CCC(C1)N2c1ccnc(C#CCN2CCn3cncc3C2)c1  10 to 100 nM
12  Nc1nnc(-c2ccccc2O)cc1N1CC2CCC(C1)N2c1ccnc(C#CCN2CCC3(CCCO3)C2)c1 (stereo not drawn)       < 10 nM
13  Nc1nnc(-c2ccccc2O)cc1N1CC2CCC(C1)N2c1ccnc(C#CCN2CC(F)C2)c1       < 10 nM
14  Nc1nnc(-c2ccccc2O)cc1N1CC2CCC(C1)N2c1ccnc(C#CCN2CCC3CC32)c1 (stereo not drawn)       < 10 nM
15  CNC(=O)C1CCCCN1CC#Cc1cc(N2C3CCC2CN(c2cc(-c4ccccc4O)nnc2N)C3)ccn1 (stereo not drawn)      > 100 nM
